The measurements presented in this section are drawn from the RNAGym collection of RNA variant scans (doi:10.7554/elife.80360).

Below is a list of entries, each paired with its recorded self-cleavage value.
B1: HDV Ribozyme (parent)
chain: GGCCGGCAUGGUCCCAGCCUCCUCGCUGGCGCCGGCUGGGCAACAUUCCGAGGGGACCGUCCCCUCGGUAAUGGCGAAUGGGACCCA

Variants of: B1
assay_overview: self-cleavage, relative activity (ratio to wild type); higher = more cleavage; co-transcriptional

Worked examples follow.
>  <variant_annotation>
G6A G80C

>  <reading>
0.0941

$$$$
>  <variant_annotation>
G55A U79A

>  <reading>
0.582

$$$$
>  <variant_annotation>
A70C A78U

>  <reading>
0.162

$$$$
>  <variant_annotation>
C49G G73C

>  <reading>
0.136

$$$$
>  <variant_annotation>
A78U G81A

>  <reading>
0.182

$$$$
>  <variant_annotation>
G39A A87G

>  <reading>
0.517

$$$$
>  <variant_annotation>
G55C A56G

>  <reading>
1.15

$$$$
>  <variant_annotation>
U23G C58U

>  <reading>
0.582

$$$$
>  <variant_annotation>
A45G U65A

>  <reading>
0.767

$$$$
>  <variant_annotation>
G5A A71U

>  <reading>
0.231

$$$$

*Q* For the variant shown here, C41A G81A , give the reported self-cleavage.
*A* 0.242

*Q* For the variant shown here, C44U G82A , give the reported self-cleavage.
*A* 0.363
